Reported CC50 values for a set of molecules
System: Vero cells
Assay: in vitro
Assay type: cell-based
Details: African green monkey
Express the result in µM but write the number alone.

Example molecules with recorded CC50:
{"columns": ["molecule", "targetOfAssay", "CC50 [µM]"],
 "data": [
  ["COc1cc(NC(C(=O)c2c[nH]c3cc(C)c(F)cc23)c2ccc(F)cc2OC)cc(S(C)(=O)=O)c1 (single isomer, unassigned) [Enantiomer 9B]", "Vero cells", 21],
  ["COc1cc(NC(C(=O)c2c[nH]c3c(F)cc(C)cc23)c2ccc(F)cc2OC)cc(S(C)(=O)=O)c1 (single isomer, unassigned) [Enantiomer 6A]", "Vero cells", 5],
  ["COc1cc(NC(C(=O)c2c[nH]c3cc(OC)c(C)cc23)c2ccc(F)cc2OC)cc(S(C)(=O)=O)c1 (single isomer, unassigned) [Enantiomer 10A]", "Vero cells", 18],
  ["COc1cc(NC(C(=O)c2c[nH]c3ccc(C)cc23)c2ccc(F)cc2OC)cc(S(C)(=O)=O)c1 (single isomer, unassigned) [Enantiomer 15B]", "Vero cells", 17],
  ["COc1cc(NC(C(=O)c2c[nH]c3cc(Cl)ccc23)c2ccc(F)cc2OC)cc(S(C)(=O)=O)c1 (single isomer, unassigned) [Enantiomer 4B]", "Vero cells", 16],
  ["COc1cc(NC(C(=O)c2c[nH]c3cc(F)ccc23)c2ccc(F)cc2OC)cc(S(C)(=O)=O)c1 (single isomer, unassigned) [Enantiomer 1A]", "Vero cells", 5.9]
]}

Prompt line: Provide the documented CC50 with Vero cells as the system for COc1cc(NC(C(=O)c2c[nH]c3cc(F)c(C)cc23)c2ccc(F)cc2OC)cc(S(C)(=O)=O)c1 (single isomer, unassigned) [Enantiomer 14B]
Response line: 11

All values here come from patent US10029984B2.
